- STUDY_TARGET: TRPM4 (Rattus norvegicus, UniProt Q9ESQ5)
- Sequence (Q9ESQ5 whole entry, the tested form may be a part): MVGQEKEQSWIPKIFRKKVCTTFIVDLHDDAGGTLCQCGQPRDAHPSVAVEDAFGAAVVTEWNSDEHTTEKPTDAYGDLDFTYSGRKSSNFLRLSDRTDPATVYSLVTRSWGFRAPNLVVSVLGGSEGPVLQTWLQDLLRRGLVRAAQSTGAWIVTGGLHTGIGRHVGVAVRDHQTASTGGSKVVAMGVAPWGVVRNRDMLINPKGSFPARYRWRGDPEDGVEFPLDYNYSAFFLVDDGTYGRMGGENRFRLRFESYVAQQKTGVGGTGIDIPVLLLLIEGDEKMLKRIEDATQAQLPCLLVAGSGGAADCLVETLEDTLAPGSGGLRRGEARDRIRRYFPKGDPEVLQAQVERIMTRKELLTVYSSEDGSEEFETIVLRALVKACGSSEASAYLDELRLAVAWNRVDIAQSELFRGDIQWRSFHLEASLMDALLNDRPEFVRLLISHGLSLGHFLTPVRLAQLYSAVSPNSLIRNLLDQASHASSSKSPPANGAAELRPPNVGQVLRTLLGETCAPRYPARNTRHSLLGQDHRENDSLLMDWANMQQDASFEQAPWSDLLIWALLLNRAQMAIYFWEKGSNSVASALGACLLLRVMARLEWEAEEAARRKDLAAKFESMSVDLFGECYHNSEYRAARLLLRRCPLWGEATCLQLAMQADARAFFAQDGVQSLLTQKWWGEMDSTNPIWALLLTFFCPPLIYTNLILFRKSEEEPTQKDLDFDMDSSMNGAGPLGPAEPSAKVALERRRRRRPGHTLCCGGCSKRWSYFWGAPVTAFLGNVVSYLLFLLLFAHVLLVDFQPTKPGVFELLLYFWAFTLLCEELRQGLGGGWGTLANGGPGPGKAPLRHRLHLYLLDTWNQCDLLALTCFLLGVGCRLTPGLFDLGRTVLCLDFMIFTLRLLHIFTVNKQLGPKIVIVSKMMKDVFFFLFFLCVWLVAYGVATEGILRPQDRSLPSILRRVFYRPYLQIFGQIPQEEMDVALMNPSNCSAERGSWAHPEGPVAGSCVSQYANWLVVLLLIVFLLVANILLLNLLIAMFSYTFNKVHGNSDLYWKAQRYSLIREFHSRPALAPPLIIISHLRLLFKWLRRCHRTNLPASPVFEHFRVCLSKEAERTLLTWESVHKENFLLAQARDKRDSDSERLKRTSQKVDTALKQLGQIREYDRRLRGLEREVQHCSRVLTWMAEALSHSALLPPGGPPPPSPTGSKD
- PROCEDURE_DETAILS: Whole-cell patch-clamp of TRPM4 currents in INS-1 cells perfused with buffered [Ca2+]i
- Type: cell-based
- Parameters: The channel was detected in INS-1 and RINm5F cell lines; endogenous in cells; host or cells: INS-1 (rat insulinoma beta-cell line)
- ASSAY_SETUP: current amplitude at +80 mV, 600 s, read-out: KD, dose-response fit of TRPM4 activation, secondary phase
MEASURED_QUANTITY: Kd (nM)
Give the value in nM but do not write nM after it.

The compound [Ca+2] [Ca^2+] showed Kd equal to 1200
